- SYSTEM NAME: human constitutive 20S proteasome (c20S) (Homo sapiens)
ENDPOINT LABEL: IC50 (nM)
Number only, in nM; omit the unit.

# MOLECULE, ENDPOINT LABEL, OBS VALUE
data = [
    ("COc1ccc(C[C@H](NC(=O)[C@@H](C)NC(=O)C2CC3(COC3)C2)C(=O)N[C@@H](CC2=CCCC2)C(=O)[C@@]2(C)CO2)cc1 [Compound C-1063]", "IC50", 169),
]

Specify measured IC50 for COc1ccc(C[C@H](NC(=O)[C@@H](C)NC(=O)C2CCOCC2)C(=O)N[C@@H](CC2CCCC2)C(=O)[C@@]2(C)CO2)cc1O [Compound C-1061] .
756

Report IC50, nothing else, for this molecule: COc1ccc([C@@H](O)[C@H](NC(=O)[C@H](C)NC(=O)CN2CCOCC2)C(=O)N[C@@H](CC2CCCC2)C(=O)[C@@]2(C)CO2)cc1 [Compound C-1022]
729

###

- SYSTEM NAME: proteasome subunit β5 (beta5) (Homo sapiens)
- Construct: Lysate from the human acute lymphoblastic leukemia cell line, MOLT-4; endogenous in cells; host or cells: MOLT-4
- ASSAY PROCEDURE: Proteasome active-site ELISA (ProCISE), beta5, MOLT-4 lysate
- Type: biochemical
- PROTOCOL CONDITIONS: read-out: ProCISE beta5 MOLT4 lysate Hu 1 h CONT: IC50; MOLT4 lysate, human, 1 h continuous treatment, 25° C.
ENDPOINT LABEL: IC50 (nM)
Numbers only; they are read as nM.

Given C[C@H](NC(=O)CN1CCOCC1)C(=O)N[C@@H](Cc1cccnc1)C(=O)N[C@@H](Cc1ccccc1)C(=O)[C@@]1(C)CO1 [Compound C-1175] , report its IC50 on proteasome subunit β5 (beta5) (Homo sapiens).
441

State IC50 on proteasome subunit β5 (beta5) (Homo sapiens). Entry: COc1ccc(C[C@H](NC(=O)[C@H](C)NC(=O)CC2COC2)C(=O)N[C@@H](Cc2ccccc2)C(=O)[C@@]2(C)CO2)cc1 [Compound C-1179]
526

Look up and report IC50, with proteasome subunit β5 (beta5) (Homo sapiens) as system, for COc1ccc(C[C@H](NC(=O)[C@@H](C)NC(=O)[C@H]2CC[C@H](O)CC2)C(=O)N[C@@H](CC2CCCC2)C(=O)[C@@]2(C)CO2)cc1O [Compound C-1072]
3390

###

- ASSAY PROCEDURE: Solubility pH 7
- PROTOCOL CONDITIONS: pH 7, aqueous buffer
Record True whenever solubility is at 3000 µg/mL or higher; record False when lower.

These solved cases illustrate the format of a correct answer.
# MOLECULE, ASSIGNED CLASS
rows = [
    ("COc1ccc(C[C@H](NC(=O)[C@H](C)NC(=O)CN2CCC(O)CC2)C(=O)N[C@@H](CC2=CCCC2)C(=O)[C@@]2(C)CO2)cc1", "True"),
    ("COc1ccc(C[C@H](NC(=O)[C@H](C)NC(=O)CN2CCOCC2)C(=O)N[C@@H](C[C@@H]2CCC(F)(F)C2)C(=O)[C@@]2(C)CO2)cc1", "True"),
    ("COc1ccc(C[C@H](NC(=O)[C@@H](C)NC(=O)C2CCN(C)CC2)C(=O)N[C@@H](CC2=CCCC2)C(=O)[C@@]2(C)CO2)cc1", "True"),
    ("COc1ccc(C[C@H](NC(=O)[C@H](C)NC(=O)CN2CCOCC2)C(=O)N[C@@H](CC2CCCC2)C(=O)[C@H]2CO2)cc1", "False"),
    ("COc1ccc(C[C@H](NC(=O)[C@H](C)NC(=O)[C@@H]2CCCO2)C(=O)N[C@@H](Cc2ccccc2)C(=O)[C@@]2(C)CO2)cc1", "False"),
    ("COc1cc(C[C@H](NC(=O)[C@H](C)NC(=O)CN2CCOCC2)C(=O)N[C@@H](CC2=CCCC2)C(=O)[C@@]2(C)CO2)ccn1", "True"),
    ("COc1ccc([C@@H](O)[C@H](NC(=O)[C@H](C)NC(=O)CN2CCOCC2)C(=O)N[C@@H](CC2=CCCC2)C(=O)[C@@]2(C)CO2)cc1", "True"),
    ("C[C@H](NC(=O)CN1CCOCC1)C(=O)N[C@@H](Cc1ccc2[nH]cnc2c1)C(=O)N[C@@H](CC1CCCC1)C(=O)[C@@]1(C)CO1", "True"),
    ("Cc1cc(C[C@H](NC(=O)[C@H](C)NC(=O)CN2CCOCC2)C(=O)N[C@@H](CC2=CCCC2)C(=O)[C@@]2(C)CO2)ccc1O", "False"),
    ("COc1ccc(C[C@H](NC(=O)[C@H](CC#N)NC(=O)CN2CCOCC2)C(=O)N[C@@H](CC2=CCCC2)C(=O)[C@@]2(C)CO2)cc1", "False"),
]

Is it the case that `C=CC(=O)NC[C@H](NC(=O)[C@H](C)NC(=O)CN1CCOCC1)C(=O)N[C@@H](Cc1ccccc1)C(=O)[C@@]1(C)CO1` has solubility reaching or exceeding 3000 µg/mL?
True

Could you verify whether the entry `COc1ccc(C[C@H](NC(=O)[C@H](C)NC(=O)[C@@H]2CCCN2C)C(=O)N[C@@H](Cc2ccccc2)C(=O)[C@@]2(C)CO2)cc1` shows solubility of no less than 3000 µg/mL?
False

I'd appreciate it if you could say whether `COc1ccc(C[C@H](NC(=O)[C@H](C)NC(=O)CN2CCOCC2)C(=O)N[C@@H](CC2=CCOCC2)C(=O)[C@@]2(C)CO2)cc1` has solubility at least equal to 3000 µg/mL.
True

Does the molecule `COc1ccc(C[C@H](NC(=O)[C@@H](C)NC(=O)C2CC(=O)C2)C(=O)N[C@@H](CC2CCCC2)C(=O)[C@@]2(C)CO2)cc1` have recorded solubility that is 3000 µg/mL or more?
False

Quick check: does `COc1ccc(C[C@H](NC(=O)[C@H](C)NC(=O)CN2CCNC(=O)C2)C(=O)N[C@@H](CC2=CCCC2)C(=O)[C@@]2(C)CO2)cc1` have solubility greater than or equal to 3000 µg/mL?
True

Is the recorded value of solubility equal to or greater than 3000 µg/mL for this molecule? `COc1ccc(C[C@H](NC(=O)[C@H](C)NC(=O)CN2CCOCC2)C(=O)N[C@@H](CC2CCCC2)C(=O)[C@@]2(C)CO2)c(F)c1`
False
